# credit: patent US20200338203A1

- assayedTarget: T1, Human EphA2 (Ecto) (Human, UniProt P29317 24-537)
- T1 construct: extracellular domain
- T1 sequence (P29317 24-537): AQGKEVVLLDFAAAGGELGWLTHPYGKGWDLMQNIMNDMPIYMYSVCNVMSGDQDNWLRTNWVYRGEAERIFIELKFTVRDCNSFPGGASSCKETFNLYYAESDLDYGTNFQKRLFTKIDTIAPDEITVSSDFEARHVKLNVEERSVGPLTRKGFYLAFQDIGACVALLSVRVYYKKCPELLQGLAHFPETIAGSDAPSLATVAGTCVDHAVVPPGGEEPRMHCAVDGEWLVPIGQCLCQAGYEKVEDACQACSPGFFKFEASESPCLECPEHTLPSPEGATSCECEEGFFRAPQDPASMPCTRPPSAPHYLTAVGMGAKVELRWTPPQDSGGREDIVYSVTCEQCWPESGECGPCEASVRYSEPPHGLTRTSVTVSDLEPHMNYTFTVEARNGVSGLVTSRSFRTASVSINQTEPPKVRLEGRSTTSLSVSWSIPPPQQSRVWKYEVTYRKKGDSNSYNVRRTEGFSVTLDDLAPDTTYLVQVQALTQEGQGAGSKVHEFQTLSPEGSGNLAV
- testSummary: FP competition; competitor Compound 18
Numbered stars: 1 amine (or outer) side, 2 acyl side, 3 side chain; on linkers, the order of the positions; unused ones are H or OH. Bridge positions count the residues as written; N and C are the ends. Square brackets hold non-standard residues; d marks the D form. Ends that are not written are not given here. 1Nal = N[C@@H](Cc1cccc2ccccc12)C(=O)O; TBMB = c1c(C[*:1])cc(C[*:3])cc1C[*:2]; Tle = CC(C)(C)[C@H](N)C(=O)O; Aib = CC(C)(N)C(=O)O; βAla = NCCC(=O)O; Sar = CNCC(=O)O
Would you mind telling me the reported Ki of each entry?
Answers are plain numbers, in nM.

>  <binder>
[βAla][Sar][Sar][Sar][Sar][Sar][Sar][Sar][Sar][Sar][Sar]H[dD]VPC[Aib][1Nal]G[Aib]F[1Nal]CP[Tle]NR[Aib]GC (linker 16-23-30 via TBMB) [Compound 239]

>  <Ki (nM)>
4.91

$$$$
>  <binder>
[dD]VTCP[1Nal]G[Aib]F[1Nal]CP[Tle]NR[Aib]GC (linker 4-11-18 via TBMB) [Compound 186]

>  <Ki (nM)>
1.34

$$$$
>  <binder>
{Ac-βAla}-[Sar][Sar][Sar][Sar][Sar][Sar][Sar][Sar][Sar][Sar]H[dD]VPCP[1Nal]G[Aib]F[1Nal]CP[Tle]NR[Aib]GC (linker 15-22-29 via TBMB) [Compound 258]

>  <Ki (nM)>
0.54

$$$$

Ask: Reported Ki for Ac-[Sar][Sar]H[dD]VPCP[1Nal]G[Aib]F[1Nal]CP[Tle]NR[Aib]GC (linker 7-14-21 via TBMB) [Compound 262] : what is it?
Reply: 0.71
